Listed below: pest or weed control at 250 g/ha values for each entry.
Tested on: barnyardgrass (Echinochloa crus-galli)
Procedure Summary: Test B flooded paddy test
Format: in vivo
Conditions Used: Echinochloa crus-galli, 250 g ai/ha, Flood; 0 to 100 scale where 0 is no effect and 100 is complete control; read-out: Barnyardgrass plant response rating
Value expressed in %; do not type the unit.

Take a look at these entries with their results.
CC(C)COc1cccc([C@H]2CN(C)C(=O)[C@@H]2C(=O)Nc2ccccc2F)c1 | 20
CN1CC(c2ccccc2OC(F)(F)C(F)F)C(C(=O)Nc2ccccc2F)C1=O (centres unmarked) | 0
CN1C[C@H](c2cc(Cl)cc(Cl)c2)[C@@H](C(=O)Nc2ccccc2F)C1=O | 60
C=C(C)c1ccc([C@H]2CN(C)C(=O)[C@@H]2C(=O)Nc2ccc(F)c(F)c2F)cc1 | 50
O=C1NC[C@H](c2cccc(C(F)(F)F)c2)C1C(=O)Nc1ccccc1CO (some centres unmarked) | 20
COc1cc(C(F)(F)F)ccc1[C@H]1CNC(=O)[C@@H]1C(=O)Nc1ccccc1F | 0
Cc1ccc([C@H]2CNC(=O)[C@@H]2C(=O)Nc2ccccc2S(C)(=O)=O)cc1C | 25
CSc1ccccc1NC(=O)[C@H]1C(=O)N(C)CC[C@@H]1c1ccc(OC(F)(F)F)cc1 | 0

I have this molecule here, CN1C[C@H](c2cccc(C(F)(F)F)c2)[C@@H](C(=O)Nc2ccccc2-n2cccn2)C1=O , and I need its recorded pest or weed control at 250 g/ha.
0

I have this molecule here, CSc1ccccc1NC(=O)[C@H]1C(=O)N(C)C[C@@H]1c1ccc(C)c(Cl)c1 , and I need its recorded pest or weed control at 250 g/ha.
95

I have this molecule here, Cc1ccccc1NC(=O)[C@H]1C(=O)N(C)C[C@@H]1c1ccc(C(F)(F)F)cc1 , and I need its recorded pest or weed control at 250 g/ha.
40

###

Tested on: blackgrass (Alopecurus myosuroides)
Procedure Summary: Test A postemergence
Format: in vivo
Conditions Used: 500 g ai/ha, postemergence; visual injury, 0 to 100 scale (0 no effect, 100 complete control), approx. 10 d
Value Type: Plant response rating, Blackgrass

I have this compound here, Cc1ccc([C@H]2CN(C)C(=O)[C@@H]2C(=O)Nc2ccccc2[S+](C)[O-])cc1Cl (single isomer, unassigned) , and I need its recorded Plant response rating, Blackgrass.
0

I have this compound here, O=C1NCC(c2cccc(Br)c2)C1C(=O)Nc1ccc(F)cc1F (racemic) , and I need its recorded Plant response rating, Blackgrass.
40

I have this compound here, CN1CC(c2cc(F)cc(F)c2)C(C(=O)Nc2ccc(F)c(F)c2F)C1=O (stereo not shown) , and I need its recorded Plant response rating, Blackgrass.
80

I have this compound here, COC(=O)c1ccccc1NC(=O)C1C(=O)NCC1c1cccc(C(F)(F)F)c1 (racemic) , and I need its recorded Plant response rating, Blackgrass.
0

###

System: wheat (Triticum aestivum)
Procedure Summary: Test A postemergence
Assay type: in vivo
Conditions Used: 125 g ai/ha, postemergence; visual injury rating on 0 to 100 scale (0 no effect, 100 complete control), approx. 10 d
Listed below: Wheat plant response rating values for each entry.

CC(C)c1ccc(C2CNC(=O)C2C(=O)Nc2ccccc2F)cc1 (stereo not drawn) | 0
O=C1NCC(c2cccc(OC(F)F)c2)C1C(=O)Nc1ccc(F)cc1F (stereo not drawn) | 0
CC(=O)N1CC(c2cccc(C(F)(F)F)c2)C(C(=O)Nc2ccccc2F)C1=O (stereo not drawn) | 0

I have this compound here, C=C(Cl)CN1CC(c2cccc(C(F)(F)F)c2)C(C(=O)Nc2ccccc2F)C1=O (stereo not drawn) , and I need its recorded Wheat plant response rating.
0

I have this compound here, O=C(Nc1cccc(F)c1F)C1C(=O)N(CC=CBr)CC1c1cccc(C(F)(F)F)c1 (stereo not drawn) , and I need its recorded Wheat plant response rating.
0

I have this compound here, Cc1cc(C2CNC(=O)C2C(=O)Nc2cccc(F)c2F)ccc1F (stereo not drawn) , and I need its recorded Wheat plant response rating.
30

I have this compound here, Cc1cc(C2CN(C)C(=O)C2C(=O)Nc2ccccc2C(F)(F)F)ccc1F (stereo not drawn) , and I need its recorded Wheat plant response rating.
40

I have this compound here, Cc1cc(C2CNC(=O)C2C(=O)Nc2ccc(F)c(F)c2F)ccc1F (stereo not drawn) , and I need its recorded Wheat plant response rating.
20

I have this compound here, CN1CC(c2ccc(Cl)cc2)C(C(=O)Nc2ccccc2S(C)(=O)=O)C1=O (stereo not drawn) , and I need its recorded Wheat plant response rating.
0

###

Tested on: rice (Oryra sativa)
Procedure Summary: Test B flooded paddy test
Format: in vivo
Conditions Used: Oryza sativa, 250 g ai/ha, Flood; 0 to 100 scale where 0 is no effect and 100 is complete control; read-out: Rice plant response rating
Value Type: pest or weed control at 250 g/ha
A bare number is not enough; add the unit after it.

Take a look at these entries with their results.
CC(C)=CC1CNC(=O)C1C(=O)Nc1ccccc1F (centres unmarked) | 0%
COc1ccc([C@H]2CN(C)C(=O)[C@@H]2C(=O)Nc2cccc(F)c2F)c(OC)c1 | 0%
CN1CC(c2cccc(C(F)(F)F)c2)C(C(=O)Nc2ccccc2C(C)(C)O)C1=O (centres unmarked) | 0%
CN1C[C@H](c2cccc(C(C)(F)F)c2)[C@@H](C(=O)Nc2ccc(F)cc2F)C1=O | 0%
CSc1ccccc1NC(=O)[C@H]1C(=O)N(C)C[C@@H]1c1ccc(C)c(Cl)c1 | 40%

I have this compound here, CCc1cc([C@H]2CNC(=O)[C@@H]2C(=O)Nc2cccc(F)c2F)cs1 , and I need its recorded pest or weed control at 250 g/ha.
20%

I have this compound here, Cc1cc([C@H]2CN(C)C(=O)[C@@H]2C(=O)Nc2ccccc2C(F)(F)F)ccc1Br , and I need its recorded pest or weed control at 250 g/ha.
25%

I have this compound here, Cc1nc([C@H]2CN(C)C(=O)[C@@H]2C(=O)Nc2cccc(F)c2F)cs1 , and I need its recorded pest or weed control at 250 g/ha.
0%

###

Listed below: Plant response rating, Pigweed values for each entry.
Test system: pigweed (Amaranthus retroflexus)
Procedure Summary: Test A preemergence
Type: in vivo
Conditions Used: 125 g ai/ha, Preemergence; visual injury after approximately 10 d; 0 to 100 scale where 0 is no effect and 100 is complete control
Number only, please.

O=C1NCC(c2ccc(F)cc2F)C1C(=O)Nc1ccccc1F (centres unmarked) [Compound 620] | 0

I have this molecule here, Cc1cccc(C2CN(C)C(=O)C2C(=O)Nc2ccccc2S(C)(=O)=O)c1 (centres unmarked) [Compound 668] , and I need its recorded Plant response rating, Pigweed.
20

###

Listed below: plant injury at 62.5 g/ha values for each entry.
System: corn (Zea mays)
Procedure Summary: Test G Pre-Emergence Protocol
Type: in vivo
Conditions Used: Zea mays, pre-emergence, 312 h, 62.5 g ai/ha, evaluated after 13 days, 100=total damage to plant, 0=no damage to plant, read-out: plant damage rating, Corn
Value expressed in %; do not type the unit.

Take a look at these entries with their results.
CN1C[C@@H](c2ccc(C(F)(F)F)cc2)[C@H](C(=O)Nc2ccnc(Cl)n2)C1=O (racemic) | 0
CN1C[C@H](c2ccc3occc3c2)[C@@H](C(=O)Nc2cccc(F)c2F)C1=O (racemic) | 0
CN1C[C@@H](c2cnc(Cl)c(Cl)c2)[C@H](C(=O)Nc2cccc(F)c2F)C1=O (racemic) | 20
CN1C[C@@H](c2ccc(C(F)(F)F)cc2)[C@H](C(=O)Nc2cc[nH]n2)C1=O (racemic) | 0

I have this compound here, CN1C[C@H](c2cccc(C(F)(F)F)c2)[C@@H](C(=O)Nc2cccnc2F)C1=O , and I need its recorded plant injury at 62.5 g/ha.
80

I have this compound here, CSc1nc(N)cc(NC(=O)[C@@H]2C(=O)N(C)C[C@H]2c2ccc(C(F)(F)F)cc2)n1 (racemic) , and I need its recorded plant injury at 62.5 g/ha.
0

I have this compound here, CN1C[C@@H](c2ccc(C(F)(F)F)cc2)[C@H](C(=O)Nc2ncc(Br)cn2)C1=O (racemic) , and I need its recorded plant injury at 62.5 g/ha.
0

I have this compound here, Cc1cc(Cl)ncc1NC(=O)[C@@H]1C(=O)N(C)C[C@H]1c1ccc(C(F)(F)F)cc1 (racemic) , and I need its recorded plant injury at 62.5 g/ha.
0

I have this compound here, CN1C[C@@H](c2ccc(C(F)(F)F)cc2)[C@H](C(=O)Nc2cccc(F)c2C(F)(F)F)C1=O (racemic) , and I need its recorded plant injury at 62.5 g/ha.
10

###

Tested on: ryegrass, Italian (Italian ryegrass, Lolium multiflorum)
Procedure Summary: Test A preemergence
Format: in vivo
Conditions Used: 125 g ai/ha, Preemergence; visual injury after approximately 10 d; 0 to 100 scale where 0 is no effect and 100 is complete control
Value Type: Plant response rating, Ryegrass, Italian
Number only, please.

Take a look at these entries with their results.
CN1CC(c2ccc(F)c(F)c2)C(C(=O)Nc2ccccc2C(F)(F)F)C1=O (stereo not drawn) | 20
O=C1NCC(c2ccc(F)cc2F)C1C(=O)Nc1ccccc1F (stereo not drawn) | 0
COc1c(F)ccc(NC(=O)C2C(=O)NCC2c2cc(F)cc(F)c2)c1F (racemic) | 0

Turning to the following molecule.
I have this molecule here, CN1CC(c2cccc(OC(F)(F)C(F)F)c2)C(C(=O)Nc2ccccc2F)C1=O (stereo not drawn) , and I need its recorded Plant response rating, Ryegrass, Italian.
30
